Experiment: Distribution coefficient of the compound, log D at pH 7.4
Assay type: physicochemical
Settings: octanol/water
quantity.name: logD

COc1cc2ncnc(Nc3ccc(NC(=O)c4ccccc4)cc3)c2cc1OC: 3.7
COc1cc2c(Nc3cnc(NC(=O)c4ccccc4)nc3)ncnc2cc1OCCCN1CCOCC1: 2.7

----------
Test system: MCF7
Test: Antiproliferative activity against MCF7 cell line
Assay type: functional, cell-based
Conditions: Homo sapiens
pIC50: −log10 of the molar value.
quantity.name: pIC50

# count of solved cases: 3
COc1cc2c(Nc3cnc(NC(=O)c4cccc(Cl)c4)nc3)ncnc2cc1OCCCN1CCOCC1: 7.10
COc1cc2c(Nc3ccc(NC(=O)c4ccccc4)cc3)ncnc2cc1OCCCN1CCOCC1: 6.70
COc1cc2c(Nc3cnc(NC(=O)c4ccc(F)c(Cl)c4)nc3)ncnc2cc1OCCCN1CCOCC1: 7.70

(1) COc1cc2c(Nc3cnc(NC(=O)c4ccccc4)nc3)ncnc2cc1OCCCN1CCOCC1
(2) COc1cc2c(Nc3cnc(NC(=O)c4cccc(Cl)c4)nc3)ncnc2cc1OCCCN1CCCCC1
(3) COc1cc2ncnc(Nc3ccc(NC(=O)c4ccccc4)cc3)c2cc1OC
# input Put the entries in order of pIC50, starting with the largest number. Provide your answer as the labels ordered per the instruction.
# output 2, 1, 3
